Data origin: ChEMBL document CHEMBL3045707

# System: Escherichia coli
# METHOD SUMMARY: Antimicrobial activity against Escherichia coli ATCC 25922 assessed as diameter of growth inhibition zone at 1000 ug/ml after 24 hr by agar well plate method
# Format: functional
# CONDITIONS USED: ATCC 25922, 24 h, read-out: DIZ
So basically: zone of inhibition at 1000 µg/mL at 7 mm or higher? That is y. Lower than 7 mm? That is n.

Brc1ccc(-c2nn(-c3ccccc3)cc2C2CC(c3ccc(-c4ccccc4)cc3)=NN2c2ccccc2)cc1 (configuration not stated)    y
CSc1ccc(C2=NN(c3ccccc3)C(c3cn(-c4ccccc4)nc3-c3ccccc3)C2)cc1 (configuration not stated)    n
Clc1ccc(C2=NN(c3ccccc3)C(c3cn(-c4ccccc4)nc3-c3ccccc3)C2)c(Cl)c1 (configuration not stated)    n
COc1ccc(-c2nn(-c3ccccc3)cc2C2CC(c3ccc(-c4ccccc4)cc3)=NN2c2ccccc2)cc1 (configuration not stated)    n
Clc1ccc(C2=NN(c3ccccc3)C(c3cn(-c4ccccc4)nc3-c3ccc(Br)cc3)C2)c(Cl)c1 (configuration not stated)    y

Form field: zone of inhibition at 1000 µg/mL at least 7 mm? Entry: CSc1ccc(C2=NN(c3ccccc3)C(c3cn(-c4ccccc4)nc3-c3ccc(Cl)cc3)C2)cc1 (configuration not stated)
n

What would you report for CN[C@@H]1[C@H](O[C@H]2[C@H](O[C@H]3[C@H](O)[C@@H](O)[C@H](N=C(N)N)[C@@H](O)[C@@H]3N=C(N)N)O[C@@H](C)[C@]2(O)C=O)O[C@@H](CO)[C@H](O)[C@H]1O ?
y

Now this one: COc1ccc(-c2nn(-c3ccccc3)cc2C2CC(c3ccc(Cl)cc3Cl)=NN2c2ccccc2)cc1 (configuration not stated)
n

Note, next up: Clc1ccc(-c2nn(-c3ccccc3)cc2C2CC(c3ccc(Cl)cc3Cl)=NN2c2ccccc2)cc1 (configuration not stated)
n

For COc1ccc(-c2nn(-c3ccccc3)cc2C2CC(c3ccc(SC)cc3)=NN2c2ccccc2)cc1 (configuration not stated) then?
n

###

# Test system: Aspergillus flavus
# METHOD SUMMARY: Antimicrobial activity against Aspergillus flavus assessed as diameter of growth inhibition zone at 1000 ug/ml after 72 hr by agar well plate method
# Format: functional
# CONDITIONS USED: read-out: DIZ
Examples of compounds with documented zone of inhibition at 1000 µg/mL follow.
Numbers only; they are read as mm.

Some solved entries appear below for comparison.
Clc1ccc(-c2nn(-c3ccccc3)cc2C2CC(c3ccc(-c4ccccc4)cc3)=NN2c2ccccc2)cc1 (centres undefined)    5
Brc1ccc(-c2nn(-c3ccccc3)cc2C2CC(c3ccc(-c4ccccc4)cc3)=NN2c2ccccc2)cc1 (centres undefined)    6
CSc1ccc(C2=NN(c3ccccc3)C(c3cn(-c4ccccc4)nc3-c3ccc(Br)cc3)C2)cc1 (centres undefined)    4

Let us move to another entry and its zone of inhibition at 1000 µg/mL.
Value wanted: zone of inhibition at 1000 µg/mL (Aspergillus flavus) of entry OC(Cn1cncn1)(Cn1cncn1)c1ccc(F)cc1F [FLUCONAZOLE]
13

###

# Test system: Pseudomonas aeruginosa
# METHOD SUMMARY: Antimicrobial activity against Pseudomonas aeruginosa ATCC 27853 assessed as diameter of growth inhibition zone at 1000 ug/ml after 24 hr by agar well plate method
# Type: functional
# CONDITIONS USED: ATCC 27853, 24 h, read-out: DIZ
// values below are reported zone of inhibition at 1000 µg/mL
I only need the number, in mm, no unit after it.

See these solved cases before continuing.
Brc1ccc(-c2nn(-c3ccccc3)cc2C2CC(c3ccc(-c4ccccc4)cc3)=NN2c2ccccc2)cc1 (stereo not drawn)    7
COc1ccc(-c2nn(-c3ccccc3)cc2C2CC(c3ccc(Cl)cc3Cl)=NN2c2ccccc2)cc1 (stereo not drawn)    4

Let us move to another entry and its zone of inhibition at 1000 µg/mL.
# returns recorded zone of inhibition at 1000 µg/mL (system: Pseudomonas aeruginosa) for CN[C@@H]1[C@H](O[C@H]2[C@H](O[C@H]3[C@H](O)[C@@H](O)[C@H](N=C(N)N)[C@@H](O)[C@@H]3N=C(N)N)O[C@@H](C)[C@]2(O)C=O)O[C@@H](CO)[C@H](O)[C@H]1O
16
